All values here come from patent US10196363B2.

Hi there, I'd appreciate the recorded pEC50 for every entry that follows.
# MEASURED TARGET: human RORγ (Homo sapiens, UniProt P51449)
# Construct: human RORγ, from Ser253 to Lys518; expressed in transfected cells; host or cells: CHO cells (Chinese hamster ovary), transient co-transfection with pG5-Luc
# Sequence (P51449 253-518): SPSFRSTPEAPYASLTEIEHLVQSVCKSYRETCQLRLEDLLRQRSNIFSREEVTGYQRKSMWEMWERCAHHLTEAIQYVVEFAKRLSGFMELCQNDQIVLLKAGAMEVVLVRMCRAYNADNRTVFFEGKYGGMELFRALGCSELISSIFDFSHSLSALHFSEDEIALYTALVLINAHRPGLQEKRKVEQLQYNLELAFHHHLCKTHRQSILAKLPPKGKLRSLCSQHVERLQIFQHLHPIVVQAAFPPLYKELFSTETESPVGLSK
# MEASUREMENT DESCRIPTION: In vitro assay of inhibitory effect against RORγ transcriptional activity (GAL4-hRORγ LBD luciferase reporter gene assay in CHO cells)
# Type: cell-based
# CONDITIONS: GAL4-hRORγ LBD luciferase reporter, CHO cells; read-out: LUC EC50 hRORγ
Answers are plain numbers, as −log10 of the molar value.

COMPOUND	pEC50
COCCC1=CN(C23CCC(C(=O)O)(C2)C3)C(=O)N[C@@]1(C)c1ccc(CCC(C)(C)C)c(Cl)c1 [Example 274]	8.10
CC(C)C1=CN(CCC(=O)O)C(=O)N[C@@]1(C)c1ccc(CCC(C)(C)O)c(Cl)c1 [Example 293]	5.96
CC(C)C1=CN(c2ccc(C(=O)O)cc2)C(=O)N[C@@]1(C)c1ccc(CCC(C)(C)C)c(C(F)(F)F)c1 [Example 271]	7.37
CC(C)C1=CN(C2CCC(C(=O)O)C2)C(=O)N[C@@]1(C)c1ccc(CCC(C)(C)C)c(Cl)c1 (single isomer, unassigned) [Example 280]	7.59
CC(C)C1=CN(CCC(=O)O)C(=O)N[C@@]1(C)c1ccc(CCC2(F)CCCC2)c(Cl)c1 [Example 301]	7.57

Look up pEC50 for the entries below, preserving their order.
1. CC(C)(C)CCc1ccc([C@]2(C)NC(=O)N(C3CCOCC3)C=C2[C@H]2C[C@@H](C(=O)O)C2)cc1Cl [Example 199]
2. CC(C)C1=CN(CCC(=O)O)C(=O)N[C@@]1(C)c1ccc(CCC(C)(C)C)cc1 [Example 253]

Return:
7.15
7.12
